TEST_METHOD_NOTES: Normal-phase TLC on silica gel 60 F254 (Rf)
Type: physicochemical
TEST_PARAMETERS: water:methanol:acetonitrile 60:20:20, ammonium acetate pH 7.4
For each record, write down the corresponding NP (Rf from NP TLC plate).
Reply with just the number.

Exercise: Please report the measured NP (Rf from NP TLC plate) for "Nc1nnc(-c2cccc(Cl)c2Cl)c(N)n1"
Key: 0.89

Exercise: Supply reported NP (Rf from NP TLC plate) belonging to this compound: "CCS(=O)(=O)CCn1c([N+](=O)[O-])cnc1C"
Key: 0.89

Exercise: Item "O=C(O)COC(=O)Cc1ccccc1Nc1c(Cl)cccc1Cl" : provide NP (Rf from NP TLC plate)
Key: 0.89

Exercise: Indicate its recorded NP (Rf from NP TLC plate); the compound in question is "CC(C)C[C@H]1C(=O)N2CCC[C@H]2[C@]2(O)O[C@](NC(=O)[C@@H]3C=C4c5cccc6[nH]c(Br)c(c56)C[C@H]4N(C)C3)(C(C)C)C(=O)N12"
Key: 0.95

Exercise: Consider the compound "CN(C)CCc1c[nH]c2ccc(C[C@H]3COC(=O)N3)cc12" . State its measured NP (Rf from NP TLC plate).
Key: 0.31

Exercise: Please list NP (Rf from NP TLC plate) recorded for the compound CNCCC(Oc1ccc(C(F)(F)F)cc1)c1ccccc1 (stereo not shown)
Key: 0.68

Exercise: Give the reported NP (Rf from NP TLC plate) for this compound. O=C1Nc2ccc(Cl)cc2C(c2ccccc2)=NC1O (stereo not shown)
Key: 0.93

Exercise: Indicate its recorded NP (Rf from NP TLC plate); the compound in question is "OCCOCCN1CCN(C2=Nc3ccccc3Sc3ccccc32)CC1"
Key: 0.68

Exercise: Report measured NP (Rf from NP TLC plate); entry is CC(C)NCC(O)COc1ccc(CCOCC2CC2)cc1 (stereo not shown)
Key: 0.66

Exercise: Kindly indicate its recorded NP (Rf from NP TLC plate). Item: O=C(c1ccccc1)c1ccc2n1CCC2C(=O)O (stereo not shown)
Key: 0.92

Exercise: Give me measured NP (Rf from NP TLC plate), please, for this compound: "CCOc1ccc(/C=C2\NCCc3cc(OCC)c(OCC)cc32)cc1OCC"
Key: 0.61

Exercise: In one line, give reported NP (Rf from NP TLC plate) of the entry OCCOCCN1CCN(C(c2ccccc2)c2ccc(Cl)cc2)CC1 (stereo not shown) [hydroxyzine] .
Key: 0.55

Exercise: Answer with the recorded NP (Rf from NP TLC plate) for the compound listed here: CN1C[C@H](C(=O)N[C@]2(C)O[C@@]3(O)[C@@H]4CCCN4C(=O)[C@H](Cc4ccccc4)N3C2=O)C[C@@H]2c3cccc4[nH]cc(c34)C[C@H]21 [dihydroergotamine]
Key: 0.72

Exercise: Return the recorded NP (Rf from NP TLC plate) value; entry: "CN1C(C(=O)Nc2ccccn2)=C(O)c2ccccc2S1(=O)=O"
Key: 0.98

Exercise: Supply recorded NP (Rf from NP TLC plate) for "O=C(N[C@H](CO)[C@H](O)c1ccc([N+](=O)[O-])cc1)C(Cl)Cl" here.
Key: 0.99

Exercise: Complete the entry with NP (Rf from NP TLC plate) for "OCCN1CCN(CC/C=C2/c3ccccc3Sc3ccc(Cl)cc32)CC1"
Key: 0.47

Exercise: Consider the compound "C=CCN1C[C@H](C(=O)N(CCCN(C)C)C(=O)NCC)C[C@@H]2c3cccc4[nH]cc(c34)C[C@H]21" and give its recorded NP (Rf from NP TLC plate).
Key: 0.68

Exercise: For the compound "C[C@H]1COc2c(N3CCN(C)CC3)c(F)cc3c(=O)c(C(=O)O)cn1c23" , report NP (Rf from NP TLC plate).
Key: 0.17

Exercise: Provide NP (Rf from NP TLC plate) value for the following compound: "CNCCc1ccccn1"
Key: 0.17

Exercise: Tell us which NP (Rf from NP TLC plate) value is on record for CN1CCN2c3ncccc3Cc3ccccc3C2C1 (stereo not shown)
Key: 0.39

Exercise: Look up NP (Rf from NP TLC plate) of CCN1CCCC1CNC(=O)c1cc(S(N)(=O)=O)ccc1OC (stereo not shown) [sulpiride] and report it.
Key: 0.27

Exercise: Please list NP (Rf from NP TLC plate) recorded for the compound "CO/N=C(\C(=O)N[C@@H]1C(=O)N2C(C(=O)O)=C(COC(N)=O)CS[C@H]12)c1ccco1"
Key: 0.97

Exercise: Identify measured NP (Rf from NP TLC plate) associated with "CC[C@H]1OC(=O)[C@H](C)[C@@H](O[C@H]2C[C@@](C)(OC)[C@@H](O)[C@H](C)O2)[C@H](C)[C@@H](O[C@@H]2O[C@H](C)C[C@H](N(C)C)[C@H]2O)[C@](C)(O)C[C@@H](C)/C(=N\OCOCCOC)[C@H](C)[C@@H](O)[C@]1(C)O"
Key: 0.91

Exercise: Given the compound "CCOC(=O)[C@H](CCc1ccccc1)N[C@@H](C)C(=O)N1CCC[C@H]1C(=O)O" , write its reported NP (Rf from NP TLC plate).
Key: 0.33

Exercise: Assign NP (Rf from NP TLC plate) to the following record: NC(=O)N1c2ccccc2C=Cc2ccccc21 [carbamazepine]
Key: 0.95

###

TEST_METHOD_NOTES: Normal-phase TLC on silica gel 60 F254 (Rf)
Assay type: physicochemical
TEST_PARAMETERS: water:methanol:acetonitrile 60:20:20, ammonium acetate pH 7.4
PROPERTY_NAME: NP (Rf from NP TLC plate)

Exercise: Specify measured NP (Rf from NP TLC plate) for COc1ccccc1OCCNCC(O)COc1cccc2[nH]c3ccccc3c12 (stereo not shown) [carvedilol] .
Key: 0.73

Exercise: Note NP (Rf from NP TLC plate) for the compound shown: CCC1(c2ccccc2)C(=O)NCNC1=O [primidone]
Key: 0.9

Exercise: Answer with the recorded NP (Rf from NP TLC plate) for the compound listed here: CC[C@H]1OC(=O)[C@H](C)[C@@H](O[C@H]2C[C@@](C)(OC)[C@@H](O)[C@H](C)O2)[C@H](C)[C@@H](O[C@@H]2O[C@H](C)C[C@H](N(C)C)[C@H]2O)[C@](C)(OC)C[C@@H](C)C(=O)[C@H](C)[C@@H](O)[C@]1(C)O [clarithromycin]
Key: 0.99

Exercise: // Input: COc1ccc2cc([C@H](C)C(=O)O)ccc2c1 [naproxen] . Output its NP (Rf from NP TLC plate) only.
Key: 0.92

###

TEST_METHOD_NOTES: HPLC on IAM (immobilized artificial membrane) column, retention factor
Type: physicochemical
TEST_PARAMETERS: logarithm of retention factor; IAM.PC.DD.2 column; phosphate buffer pH 7.4:acetonitrile 80:20
PROPERTY_NAME: logkIAM
Just the number, please.

Exercise: Respond only with logkIAM recorded for CCOC(=O)[C@H](CCc1ccccc1)N[C@@H](C)C(=O)N1Cc2ccccc2C[C@H]1C(=O)O [quinapril]
Key: 0.09

Exercise: Could you please provide reported logkIAM for CCOc1ccc(/C=C2\NCCc3cc(OCC)c(OCC)cc32)cc1OCC [drotaverine] ? Thanks!
Key: 1.49

Exercise: Quick one: give measured logkIAM for CN(C)CCCN1c2ccccc2Sc2ccccc21 [promazine]
Key: -1.02

Exercise: Dear colleague, please send me the reported logkIAM for CC(=O)CC(c1ccc([N+](=O)[O-])cc1)c1c(O)c2ccccc2oc1=O (stereo not shown) [acenocumarol] when you can.
Key: -0.27

###

TEST_METHOD_NOTES: HPLC on IAM (immobilized artificial membrane) column, retention factor
Format: physicochemical
TEST_PARAMETERS: IAM.PC.DD.2 column; 10 mM phosphate buffer pH 7.4:acetonitrile 80:20
Classify by measured k(IAM) retention factor: Y if it is equal to or exceeds 20, N if it is smaller.

Exercise: API: above_or_equal(metric=k(IAM) retention factor, cutoff=20) for item "COC(=O)[C@@H]1CC2=CC(=O)CC[C@]2(C)[C@@]23O[C@@H]2C[C@@]2(C)[C@@H](CC[C@@]24CCC(=O)O4)[C@H]13"
Key: N

Exercise: Reported k(IAM) retention factor reaches at least 20 for "OCCOCCN1CCN(C2=Nc3ccccc3Sc3ccccc32)CC1" ?
Key: N

Exercise: Entry CCN1CCCC1CNC(=O)c1cc(S(N)(=O)=O)ccc1OC (centres unmarked) [sulpiride] : is its k(IAM) retention factor no less than 20?
Key: N

Exercise: Please indicate if the recorded k(IAM) retention factor for "C[C@]12CC[C@@H]3c4ccc(O)cc4CC[C@H]3[C@@H]1CCC2=O" meets or exceeds 20.
Key: Y

Exercise: Does the compound "CC[C@H]1OC(=O)[C@H](C)[C@@H](O[C@H]2C[C@@](C)(OC)[C@@H](O)[C@H](C)O2)[C@H](C)[C@@H](O[C@@H]2O[C@H](C)C[C@H](N(C)C)[C@H]2O)[C@](C)(OC)C[C@@H](C)C(=O)[C@H](C)[C@@H](O)[C@]1(C)O" have recorded k(IAM) retention factor that is 20 or more?
Key: N
